Test system: HT29 colon
Test: NCI-60 one-dose screen, 48 h (100 = growth as untreated, 0 = no growth, -100 = all killed)
Details: 10 µM unless noted
Description: Growth inhibition of the HT29 human tumor cell line is measured as a screen for anti-cancer activity. Cells are grown in 96 well plates and exposed to the test compound for 48 hours. Compounds are tested at a single concentration, which is 10^-5 M for most compounds. The reported endpoint is percent growth (GI% or GIPRCNT), where numbers from 0 - 100% represent growth inhibition, and numbers from -100% - 0 represent cell death. For example, a value of 40 represents 60% growth inhibition. […]
About 83,000 compounds went through this panel and 20% of them were active in at least one assay; those are over-represented in the sample as a whole.
Kind request: treat 30% as inclusive, so growth at 30% or higher is T, anything lower is F.

MOLECULE: CN(C)CCNc1nc2c3cc(Cl)ccc3nn2c2ccccc12
LABEL_VALUE: F
//
MOLECULE: O=S(=O)(Nc1ccccc1)c1ccc(C2CC3(Cl)C(Cl)=C(Cl)C2(Cl)C3(Cl)Cl)cc1 (stereo not given)
LABEL_VALUE: T
//
MOLECULE: C=CCn1cc(-c2nc3ccccc3s2)c2cc(-c3ccc4c5c(cccc35)C(=O)N(N)C4=O)ccc21
LABEL_VALUE: T
//
MOLECULE: COc1ccc(/C=N/NC(=O)CCN2c3ccccc3Sc3ccccc32)cc1
LABEL_VALUE: T
//
MOLECULE: N#Cc1c(N)nnn1Cc1cc(=O)oc2c1ccc1ccccc12
LABEL_VALUE: T
//
MOLECULE: CC(C)N1CCN(Cc2ccc3c(NNC(=O)c4ccccc4)nc4cc(F)ccc4n23)CC1
LABEL_VALUE: T
//
MOLECULE: C#CCOc1cccc(Nc2ncnc3ccc(NC(=O)CCl)cc23)c1
LABEL_VALUE: F
//
MOLECULE: CCc1n(Cc2ccc3ccccc3c2)cc[n+]1Cc1ccc2ccccc2c1
LABEL_VALUE: F
//
MOLECULE: N#Cc1c(-c2ccc(Cl)cc2)nc(NN=Cc2cccc(O)c2)nc1N1CCOCC1
LABEL_VALUE: T
//
MOLECULE: COc1ccc(OC)c(C(=O)/C=C/c2cc3c(c(OC)c2OC)OCO3)c1
LABEL_VALUE: T
